In this section, each of the compounds is paired with its reported Kd.
Assay Target: CNOT7 (Homo sapiens)
Construct: biotin (biotinylated); purchased Ichor Life Sciences
Sequence (Q9UIV1 whole entry): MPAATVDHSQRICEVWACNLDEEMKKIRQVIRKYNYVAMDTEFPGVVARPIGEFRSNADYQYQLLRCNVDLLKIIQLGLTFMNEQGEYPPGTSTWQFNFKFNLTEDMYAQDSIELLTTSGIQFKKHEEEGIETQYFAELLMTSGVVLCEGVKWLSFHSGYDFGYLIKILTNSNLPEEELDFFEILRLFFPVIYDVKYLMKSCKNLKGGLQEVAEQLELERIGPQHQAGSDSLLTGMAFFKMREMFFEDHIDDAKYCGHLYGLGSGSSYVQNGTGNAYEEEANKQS
Assay Overview: Binding of compounds to CNOT7 by surface plasmon resonance (SPR)
Settings: Table 6; dissociation constant for CNOT7 by SPR

Compound: COC[C@H](Sc1nc(=O)[nH]cc1C)C(=O)N[C@@H](C)c1ccc2c(c1)CC(=O)N2 [Compound I-325]
Assay Target: CNOT7 (Homo sapiens)
Kd: 1000 to 25000 nM

Compound: COc1ccc([C@@H](C)NC(=O)CSc2nc(=O)[nH]cc2Cl)c(F)c1 [Compound I-330]
Assay Target: CNOT7 (Homo sapiens)
Kd: 100 to 1000 nM

Compound: COc1ccc([C@@H](NC(=O)CSc2nc(=O)[nH]cc2C)C(C)C)cc1 [Compound I-327]
Assay Target: CNOT7 (Homo sapiens)
Kd: 1000 to 25000 nM

Compound: COc1ccc([C@](C)(CO)NC(=O)CSc2nc(=O)[nH]cc2C)cc1 [Compound I-250]
Assay Target: CNOT7 (Homo sapiens)
Kd: 1000 to 25000 nM

Taken from patent US20260199485A1.
